test_target: Mre11ND WT (Pyrococcus furiosus, UniProt Q8U1N9 1-342)
assay_remarks: fluorescence polarization

{"columns": ["binder", "Kd"],
 "data": [
  ["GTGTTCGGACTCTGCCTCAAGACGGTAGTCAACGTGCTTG (ssDNA) [FAM 40-mer ssDNA]", "130 nM"]
]}

Entry source: paper PMC7231638
